Hello, the source for this data is patent US12227500B2, in case you need it.

EXPERIMENTAL TARGET: MLK1/MAP3K9 (Homo sapiens)
Construct: purchased Reaction Biology Corp
Sequence (P80192 whole entry): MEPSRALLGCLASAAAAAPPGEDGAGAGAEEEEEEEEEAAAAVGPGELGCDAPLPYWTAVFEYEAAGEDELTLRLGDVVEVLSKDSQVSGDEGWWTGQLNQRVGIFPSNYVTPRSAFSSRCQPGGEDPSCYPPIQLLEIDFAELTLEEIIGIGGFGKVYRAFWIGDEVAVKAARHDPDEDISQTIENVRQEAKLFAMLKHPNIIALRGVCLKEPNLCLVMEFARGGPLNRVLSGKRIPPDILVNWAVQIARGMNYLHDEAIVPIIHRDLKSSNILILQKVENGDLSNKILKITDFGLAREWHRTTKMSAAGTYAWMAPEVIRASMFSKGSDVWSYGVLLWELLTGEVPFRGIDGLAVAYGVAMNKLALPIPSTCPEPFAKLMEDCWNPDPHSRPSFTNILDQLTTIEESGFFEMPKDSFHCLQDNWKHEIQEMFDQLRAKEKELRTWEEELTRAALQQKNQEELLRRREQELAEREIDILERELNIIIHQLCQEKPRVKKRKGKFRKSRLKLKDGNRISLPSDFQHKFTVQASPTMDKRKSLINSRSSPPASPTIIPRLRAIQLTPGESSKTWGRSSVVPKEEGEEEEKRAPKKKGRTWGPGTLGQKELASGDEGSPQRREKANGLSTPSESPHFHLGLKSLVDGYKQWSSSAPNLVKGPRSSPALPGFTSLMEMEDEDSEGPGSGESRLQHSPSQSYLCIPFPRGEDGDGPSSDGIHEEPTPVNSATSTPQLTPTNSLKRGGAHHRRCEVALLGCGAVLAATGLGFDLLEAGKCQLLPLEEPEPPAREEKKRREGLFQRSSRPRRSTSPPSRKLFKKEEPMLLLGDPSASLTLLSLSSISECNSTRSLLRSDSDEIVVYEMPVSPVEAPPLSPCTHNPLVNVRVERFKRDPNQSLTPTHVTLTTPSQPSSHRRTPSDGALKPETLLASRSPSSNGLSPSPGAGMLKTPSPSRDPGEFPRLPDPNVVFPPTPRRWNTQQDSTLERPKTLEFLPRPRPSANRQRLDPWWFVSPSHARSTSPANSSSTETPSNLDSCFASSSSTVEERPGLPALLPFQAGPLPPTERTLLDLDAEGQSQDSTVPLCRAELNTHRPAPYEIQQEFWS
ASSAY SUMMARY: Radiolabeled ATP kinase assay (Reaction Biology Corp.), MLK1
Assay type: biochemical
ASSAY SETUP: [Cmpd] 0.1 μM; 10 μM ATP; read-out: % Enzyme Activity Remaining (relative to DMSO controls), MLK1/MAP3K9, Data 2
Description: Meanwhile, the same analogs were analyzed in a radiolabeled ATP assay (10 μM ATP; Reaction Biology Corp.) to compare the extent to which they could inhibit the activity of HGK, MLK1, or MLK3 in a cell-free environment (Table S3 and S4).
RECORDED ENDPOINT: remaining activity at 0.1 µM (%)
Entry rule: numbers only, all in %.

For orientation, consider the following solved cases.
Tell us which remaining activity at 0.1 µM value is on record for CN1CCN(Cc2ccc(-c3cnc4[nH]cc(-c5ccncc5)c4c3)cc2)CC1
88.7

Tell us which remaining activity at 0.1 µM value is on record for CN1CCN(Cc2ccc(-c3cnc4[nH]cc(-c5ccc(Cl)cc5Cl)c4c3)cc2)CC1
91.8

Tell us which remaining activity at 0.1 µM value is on record for CN1CCN(Cc2ccc(-c3cnc4[nH]cc(-c5ccc6[nH]ncc6c5)c4c3)cc2)CC1
44

Tell us which remaining activity at 0.1 µM value is on record for CNC(=O)Nc1cccc(-c2c[nH]c3ncc(-c4ccc(CN5CCN(C)CC5)cc4)cc23)c1
32.8

Tell us which remaining activity at 0.1 µM value is on record for CN1CCN(Cc2ccc(-c3cnc4[nH]cc(-c5cnn(C)c5)c4c3)cc2)CC1
94.3

Others:
Tell us which remaining activity at 0.1 µM value is on record for CN1CCN(Cc2ccc(-c3cnc4[nH]cc(-c5cccc(O)c5)c4c3)cc2)CC1
58.6

Tell us which remaining activity at 0.1 µM value is on record for CN1CCN(Cc2ccc(-c3cnc4[nH]cc(-c5ccc(S(C)(=O)=O)nc5)c4c3)cc2)CC1
95.9

Tell us which remaining activity at 0.1 µM value is on record for CN1CCN(Cc2ccc(-c3cnc4[nH]cc(-c5cccc(F)c5)c4c3)cc2)CC1
58.1

Tell us which remaining activity at 0.1 µM value is on record for CN1CCN(Cc2ccc(-c3cnc4[nH]cc(-c5cccc(NC(=O)NCc6ccco6)c5)c4c3)cc2)CC1
91.8

Tell us which remaining activity at 0.1 µM value is on record for Cc1cc(-c2c[nH]c3ncc(-c4ccc(CN5CCN(C)CC5)cc4)cc23)cnc1N
52.4

Tell us which remaining activity at 0.1 µM value is on record for CN1CCN(Cc2ccc(-c3cnc4[nH]cc(-c5ccc(N)cc5)c4c3)cc2)CC1
54

Tell us which remaining activity at 0.1 µM value is on record for CN1CCN(Cc2ccc(-c3cnc4[nH]cc(-c5cccc(OCc6ccccc6)c5)c4c3)cc2)CC1
68

Tell us which remaining activity at 0.1 µM value is on record for CN1CCN(Cc2ccc(-c3cnc4[nH]cc(-c5ccc(C#N)cc5)c4c3)cc2)CC1
90.7

Tell us which remaining activity at 0.1 µM value is on record for CN1CCN(Cc2ccc(-c3cnc4[nH]cc(-c5cccc(C(=O)O)c5)c4c3)cc2)CC1
77.5

Tell us which remaining activity at 0.1 µM value is on record for COC(=O)Nc1ccc(-c2c[nH]c3ncc(-c4ccc(CN5CCN(C)CC5)cc4)cc23)cc1
65.4

Tell us which remaining activity at 0.1 µM value is on record for CN1CCN(Cc2ccc(-c3cnc4[nH]cc(-c5cnn(Cc6ccccc6)c5)c4c3)cc2)CC1
48.2

Tell us which remaining activity at 0.1 µM value is on record for CN1CCN(Cc2ccc(-c3cnc4[nH]cc(-c5ccc6cnn(C)c6c5)c4c3)cc2)CC1
50
